These measurements were taken from ChEMBL document CHEMBL6087433.

- experiment-summary: in vitro
- measurement-context: human, Caco-2
- Description: Apparent permeability of the compound across basolateral to apical side in human Caco-2 cells at 10 uM
value-kind: Papp B→A at 10 µM (×10⁻⁶ cm/s)
Numbers only, in ×10⁻⁶ cm/s.

Reported Papp B→A at 10 µM ( `C[C@@H]1COCCN1c1cc(N=[S@@](C)(=O)C2CC2)nc(-c2ccnc(N)c2)n1` ) = 34

---

- experiment-summary: in vivo
- measurement-context: CD-1, mouse, iv, 1 mg/kg
- Description: Volume of distribution at steady state in CD-1 mouse at 1 mg/kg, iv
value-kind: Vd
The reply must contain the numeric value and, after it, the unit.

Entry `C[C@@H]1COCCN1c1cc(N=[S@@](C)(=O)C2CC2)nc(-c2ccnc(N)c2)n1` ; Vd = 4.9 L/kg

---

- experiment-summary: in vivo
- measurement-context: cynomolgus monkey, iv, 1 mg/kg
- Description: Half life in cynomolgus monkey at 1 mg/kg, iv
value-kind: half-life (h)
Answers are plain numbers, in h.

Measured half-life, `C[C@@H]1COCCN1c1cc(N=[S@@](C)(=O)C2CC2)nc(-c2ccnc(N)c2)n1` : 1.3

---

- experiment-summary: in vitro
- measurement-context: human, plasma
- Description: Protein binding in human plasma assessed as free fraction at 5 uM incubated for 5 hrs by equilibrium dialysis method
value-kind: fraction unbound at 5 h, 5 µM

Reported fraction unbound at 5 h, 5 µM for `C[C@@H]1COCCN1c1cc(N=[S@@](C)(=O)C2CC2)nc(-c2ccnc(N)c2)n1` was 0.45

---

- experiment-summary: in vivo
- measurement-context: Sprague-Dawley, rat, plasma, iv, 1 mg/kg
value-kind: clearance (mL/min/kg)
Answers are plain numbers, in mL/min/kg.

Form field clearance, entry `C[C@@H]1COCCN1c1cc(N=[S@@](C)(=O)C2CC2)nc(-c2ccnc(N)c2)n1` : 98

---

Quick record of IC50 values for Serine/threonine-protein kinase mTOR (Homo sapiens).
One number for each entry, in nM.

The following molecules each have a reported value; give each one's IC50.
1. C[C@@H]1COCCN1c1cc(N=[S@](C)(=O)C2CC2)nc(-c2ccnc3[nH]ccc23)c1
2. C[C@@H]1COCCN1c1cc(C2CCN(S(C)(=O)=O)CC2)nc(-c2ccnc3[nH]ccc23)n1
3. COc1cc(-c2nc(N=[S@](C)(=O)C3COC3)cc(N3CCOC[C@H]3C)n2)cc(N)n1

Result:
1. 2770
2. 217
3. 2980

Respectfully, I request IC50 for each entry included below.
1. C[C@@H]1COCCN1c1cc(N=S(C)(C)=O)nc(-c2ccnc(N)c2)n1
2. C[C@@H]1COCCN1c1cc(N=[S@@](C)(=O)C2CC2)nc(-c2ccnc3[nH]ccc23)c1
3. C[C@@H]1COCCN1c1cc(C2CCCN(S(C)(=O)=O)C2)nc(-c2ccnc3[nH]ccc23)n1 (mixture of isomers)
4. C[C@@H]1COCCN1c1cc(C2CCCS2(=O)=O)nc(-c2ccnc3[nH]ccc23)n1 (mixture of isomers)
5. C[C@@H]1COCCN1c1cc(N=S(C)(C)=O)nc(-c2ccnc3[nH]ccc23)n1

Result:
4780
1190
113
274
419

---

- experiment-summary: physchem
- measurement-context: aqueous buffer, pH 7.4
- Description: Thermodynamic solubility of the compound in aqueous buffer at pH 7.4
value-kind: solubility thermodynamic (µg/mL)
Answers are plain numbers, in µg/mL.

solubility thermodynamic reading for `C[C@@H]1COCCN1c1cc(N=[S@@](C)(=O)C2CC2)nc(-c2ccnc(N)c2)n1` : 1500

---

- measurement-target: Phosphatidylinositol 4,5-bisphosphate 3-kinase catalytic subunit gamma isoform (Homo sapiens)
- Sequence (P48736 whole entry, canonical isoform): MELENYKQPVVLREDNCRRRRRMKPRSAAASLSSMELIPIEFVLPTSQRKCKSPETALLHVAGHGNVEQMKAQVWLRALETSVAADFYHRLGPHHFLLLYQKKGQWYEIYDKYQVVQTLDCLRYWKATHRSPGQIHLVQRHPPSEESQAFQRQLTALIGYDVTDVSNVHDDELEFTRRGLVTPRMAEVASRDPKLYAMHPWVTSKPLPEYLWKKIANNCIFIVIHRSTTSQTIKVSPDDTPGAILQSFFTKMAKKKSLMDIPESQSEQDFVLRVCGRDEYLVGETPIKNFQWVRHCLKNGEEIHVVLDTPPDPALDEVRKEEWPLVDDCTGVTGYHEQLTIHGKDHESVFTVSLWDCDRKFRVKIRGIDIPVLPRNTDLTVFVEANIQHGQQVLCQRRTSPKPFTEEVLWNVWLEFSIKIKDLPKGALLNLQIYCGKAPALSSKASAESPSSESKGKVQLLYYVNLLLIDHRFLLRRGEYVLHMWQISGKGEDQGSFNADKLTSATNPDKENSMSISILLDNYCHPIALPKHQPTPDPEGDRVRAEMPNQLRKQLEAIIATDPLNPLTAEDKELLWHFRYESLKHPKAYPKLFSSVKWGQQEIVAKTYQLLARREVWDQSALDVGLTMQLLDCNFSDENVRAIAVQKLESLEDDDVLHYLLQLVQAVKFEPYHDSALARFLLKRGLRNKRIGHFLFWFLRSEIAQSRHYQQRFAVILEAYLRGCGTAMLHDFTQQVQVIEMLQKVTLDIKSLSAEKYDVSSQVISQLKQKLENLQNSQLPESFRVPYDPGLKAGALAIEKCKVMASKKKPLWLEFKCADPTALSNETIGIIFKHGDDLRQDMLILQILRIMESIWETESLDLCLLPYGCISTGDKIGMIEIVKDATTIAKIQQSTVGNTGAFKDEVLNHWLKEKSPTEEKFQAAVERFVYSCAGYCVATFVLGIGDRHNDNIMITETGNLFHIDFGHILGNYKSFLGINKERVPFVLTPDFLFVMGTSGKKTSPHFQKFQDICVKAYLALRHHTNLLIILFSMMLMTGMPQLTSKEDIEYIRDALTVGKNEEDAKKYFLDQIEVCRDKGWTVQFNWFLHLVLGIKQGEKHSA
value-kind: IC50

// IC50 value for `C[C@@H]1COCCN1c1cc(N=[S@@](C)(=O)C2CC2)nc(-c2ccnc(N)c2)n1` : > 50 µM

---

Task for the reader: assign each of the following molecules its reported IC50.
- measurement-target: Serine/threonine-protein kinase mTOR (Homo sapiens)
Answers are plain numbers, in µM.

Example molecules with recorded IC50:
• C[C@@H]1COCCN1c1cc(C2CCCS2(=O)=O)nc(-c2ccnc3[nH]ccc23)n1 (mixture of isomers) = 3.9
• C[C@@H]1COCCN1c1cc(N=S(C)(C)=O)nc(-c2ccnc(N)c2)n1 = 15.4
• COc1cc(-c2nc(N=S(C)(C)=O)cc(N3CCOC[C@H]3C)n2)cc(N)n1 = 8.26
• C[C@@H]1COCCN1c1cc(N=S(C)(C)=O)nc(-c2ccnc3[nH]ccc23)n1 = 2.4
• C[C@@H]1COCCN1c1cc(N=[S@@](C)(=O)C2CC2)nc(-c2ccnc(N)c2)n1 = 8.38

Hi! Can you tell me IC50 for each of these molecules?
1. C[C@@H]1COCCN1c1cc(N=[S@](C)(=O)C2CC2)nc(-c2ccnc3[nH]ccc23)c1
2. C[C@@H]1COCCN1c1cc(N=S(C)(=O)C2CCOCC2)nc(-c2ccnc3[nH]ccc23)n1 (mixture of isomers)
3. COc1cc(-c2nc(N=[S@@](C)(=O)C3COC3)cc(N3CCOC[C@H]3C)n2)cc(N)n1
4. C[C@@H]1COCCN1c1cc(C2CCCN(S(C)(=O)=O)C2)nc(-c2ccnc3[nH]ccc23)n1 (mixture of isomers)
5. C[C@@H]1COCCN1c1cc(N=S(C)(=O)C2COC2)nc(-c2ccnc3[nH]ccc23)n1 (mixture of isomers)
6. COc1cc(-c2nc(N=[S@](C)(=O)C3COC3)cc(N3CCOC[C@H]3C)n2)cc(N)n1
7. COc1cc(-c2nc(N=[S@@](C)(=O)C3CC3)cc(N3CCOC[C@H]3C)n2)cc(N)n1
8. Cc1cc2c(-c3nc(N=S(C)(C)=O)cc(N4CCOC[C@H]4C)n3)ccnc2[nH]1

Result:
1: 9.65; 2: 6.36; 3: 5.25; 4: 1.3; 5: 2.19; 6: 8.24; 7: 7; 8: 3.34

Batch request: IC50 per item, same order as input.
1. C[C@@H]1COCCN1c1cc(C2CCN(S(C)(=O)=O)CC2)nc(-c2ccnc3[nH]ccc23)n1
2. C[C@@H]1COCCN1c1cc(N2CCCN(C)S2(=O)=O)nc(-c2ccnc3[nH]ccc23)n1
3. C[C@@H]1COCCN1c1cc(N=[S@@](C)(=O)C2CC2)nc(-c2ccnc3[nH]ccc23)n1
4. CC[S@](C)(=O)=Nc1cc(N2CCOC[C@H]2C)nc(-c2ccnc3[nH]ccc23)n1
5. C[C@@H]1COCCN1c1cc(N=[S@](C)(=O)C2CC2)nc(-c2ccnc3[nH]ccc23)n1
6. C[C@@H]1COCCN1c1cc(N=S(C)(C)=O)nc(-c2ccnc3[nH]ccc23)c1

Result:
0.496
0.42
1.66
2.16
2.38
8.5

State recorded IC50 for all listed molecules.
1. CC[S@@](C)(=O)=Nc1cc(N2CCOC[C@H]2C)nc(-c2ccnc3[nH]ccc23)n1
2. C[C@@H]1COCCN1c1cc(N=[S@@](C)(=O)C2CC2)nc(-c2ccnc3[nH]ccc23)c1

Result:
1. 1.71
2. 8.2

---

- experiment-summary: in vivo
- measurement-context: CD-1, mouse, po, 10 mg/kg
value-kind: AUC(0-t) (µM·h)
Give bare numbers, in µM·h.

# molecule `C[C@@H]1COCCN1c1cc(N=[S@@](C)(=O)C2CC2)nc(-c2ccnc(N)c2)n1` ; its AUC(0-t) = 4.25

---

- experiment-summary: in vitro
- measurement-context: mouse, plasma
- Description: Protein binding in mouse plasma assessed as free fraction at 5 uM incubated for 5 hrs by equilibrium dialysis method
value-kind: fraction unbound at 5 h, 5 µM
Give bare numbers.

Note to self: fraction unbound at 5 h, 5 µM recorded for `C[C@@H]1COCCN1c1cc(N=[S@@](C)(=O)C2CC2)nc(-c2ccnc(N)c2)n1` was 0.33

---

- experiment-summary: in vivo
- measurement-context: beagle, dog, iv, 1 mg/kg
- Description: Half life in Beagle dog at 1 mg/kg, iv
value-kind: half-life (h)
Numbers only, in h.

For `C[C@@H]1COCCN1c1cc(N=[S@@](C)(=O)C2CC2)nc(-c2ccnc(N)c2)n1` the molecule record lists half-life as 3.1

---

- experiment-summary: in vitro
- measurement-context: human, CCD-18Co cells
- Description: Cytotoxicity against human CCD-18Co cells assessed as inhibition of cell growth incubated for 7 days by CellTiter-Glo 2.0 assay
value-kind: EC50 at 7 days (µM)
Answers are plain numbers, in µM.

// field: EC50 at 7 days; key: `C[C@@H]1COCCN1c1cc(N=[S@@](C)(=O)C2CC2)nc(-c2ccnc(N)c2)n1` ; value = 6.92

---

- experiment-summary: in vivo
- measurement-context: Beagle, dog, po, 10 mg/kg
value-kind: Cmax (nM)
One number for each entry, in nM.

Recorded result, `C[C@@H]1COCCN1c1cc(N=[S@@](C)(=O)C2CC2)nc(-c2ccnc(N)c2)n1` , Cmax: 1930

---

- experiment-summary: in vivo
- measurement-context: CD-1, mouse, po, 10 mg/kg
value-kind: Cmax (µM)
Answers are plain numbers, in µM.

// Cmax value for `C[C@@H]1COCCN1c1cc(N=[S@@](C)(=O)C2CC2)nc(-c2ccnc(N)c2)n1` : 3.16

---

- measurement-target: Cytochrome P450 3A4 (Homo sapiens, UniProt P08684)
- Sequence (P08684 whole entry): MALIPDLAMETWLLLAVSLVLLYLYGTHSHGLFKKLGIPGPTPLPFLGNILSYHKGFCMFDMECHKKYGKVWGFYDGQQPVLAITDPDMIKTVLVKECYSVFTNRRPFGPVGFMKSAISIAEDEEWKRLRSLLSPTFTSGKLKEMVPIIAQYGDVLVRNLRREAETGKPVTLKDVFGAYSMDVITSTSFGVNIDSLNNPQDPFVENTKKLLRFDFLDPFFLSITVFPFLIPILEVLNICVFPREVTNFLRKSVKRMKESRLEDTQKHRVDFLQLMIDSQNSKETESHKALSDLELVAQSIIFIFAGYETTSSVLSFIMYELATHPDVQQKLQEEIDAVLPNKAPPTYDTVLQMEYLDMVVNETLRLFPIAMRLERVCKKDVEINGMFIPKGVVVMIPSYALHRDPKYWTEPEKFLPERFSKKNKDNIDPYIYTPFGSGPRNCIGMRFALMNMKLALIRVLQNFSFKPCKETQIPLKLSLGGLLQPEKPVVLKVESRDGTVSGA
value-kind: IC50

Cytochrome P450 3A4 (Homo sapiens, UniProt P08684) data for `C[C@@H]1COCCN1c1cc(N=[S@@](C)(=O)C2CC2)nc(-c2ccnc(N)c2)n1` ; its IC50: > 10 µM
